The reported measurements were obtained from ChEMBL document CHEMBL1144570.

- ASSAYED_TARGET: 17-beta-hydroxysteroid dehydrogenase type 1 (Homo sapiens) (UniProt P14061)
- Sequence (P14061 whole entry): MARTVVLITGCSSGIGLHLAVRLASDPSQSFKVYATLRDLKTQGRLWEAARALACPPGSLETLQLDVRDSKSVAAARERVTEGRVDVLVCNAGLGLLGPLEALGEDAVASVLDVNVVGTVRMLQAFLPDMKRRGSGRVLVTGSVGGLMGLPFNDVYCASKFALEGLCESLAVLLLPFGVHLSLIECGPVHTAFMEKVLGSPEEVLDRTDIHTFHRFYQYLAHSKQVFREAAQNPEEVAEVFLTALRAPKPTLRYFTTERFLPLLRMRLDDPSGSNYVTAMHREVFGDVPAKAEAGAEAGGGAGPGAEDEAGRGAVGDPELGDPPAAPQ
- TEST_DESCRIPTION: Inhibition of 17beta-HSD1 over-expressed in intact T47D cells at 0.1 uM
- Format: cell-based
Label rule, in plain words: inhibition of 30% and up is Satisfied, under 30% is Not satisfied.

Task: Please indicate if the recorded inhibition for "C[C@]12CC[C@@H]3c4ccc(O)cc4CC[C@H]3[C@@H]1CCC2=O" meets or exceeds 30%.
Result: Satisfied

Task: Please tell me: is the molecule "CCCCN(C)C(=O)CCCCCC[C@H]1C[C@@H]2[C@H](CC[C@]3(C)C(=O)CC[C@@H]23)c2ccc(O)cc21" at or over 30% in terms of inhibition?
Result: Not satisfied

Task: Say whether "CCCCN(C)C(=O)CCCCCC[C@@H]1C[C@@H]2[C@H](CC[C@]3(C)[C@@H](O)CC[C@@H]23)c2ccc(O)cc21" shows inhibition of 30% or more.
Result: Not satisfied

Task: Determine whether this molecule has inhibition no lower than 30%: "CCCCN(C)C(=O)CCCCCS[C@@H]1C[C@@H]2[C@H](CC[C@]3(C)[C@@H](O)CC[C@@H]23)c2ccc(O)cc21"
Result: Satisfied

Task: Say whether "CCCCN(C)C(=O)CCCCCC[C@@H]1C[C@@H]2[C@H](CC[C@]3(C)C(=O)CC[C@@H]23)c2ccc(O)cc21" shows inhibition of 30% or more.
Result: Not satisfied

Task: Hello, I need to know if "CCCCN(C)C(=O)CCCCCC[C@@H]1C[C@@H]2[C@H](CC[C@]3(C)[C@@H](O)CC[C@@H]23)c2cc(OC)c(O)cc21" has measured inhibition not below 30%. Thanks!
Result: Not satisfied

Task: Is inhibition at least 30%? Consider "CCCCN(C)C(=O)CCCCCC[C@H]1C[C@@H]2[C@H](CC[C@]3(C)[C@@H](O)CC[C@@H]23)c2ccc(O)cc21"
Result: Not satisfied
